- TARGET UNDER TEST: MC1R (Homo sapiens)
- Sequence (Q01726 whole entry): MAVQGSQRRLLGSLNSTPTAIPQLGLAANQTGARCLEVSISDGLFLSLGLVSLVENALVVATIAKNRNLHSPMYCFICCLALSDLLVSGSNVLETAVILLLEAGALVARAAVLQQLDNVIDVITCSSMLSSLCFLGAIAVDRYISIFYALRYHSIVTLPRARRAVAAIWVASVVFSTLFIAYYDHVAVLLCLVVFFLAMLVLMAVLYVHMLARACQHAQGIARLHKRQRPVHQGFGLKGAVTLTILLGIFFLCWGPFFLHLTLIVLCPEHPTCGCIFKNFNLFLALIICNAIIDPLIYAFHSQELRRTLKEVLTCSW
- ASSAY NAME: cAMP stimulation in heterologous cells expressing human MC1R
- CONDITION SUMMARY: cAMP, heterologous cells
pEC50: −log10 of the molar value.
Use Y when the recorded pEC50 is no lower than 9; use N when it is lower.

-- ask Check the entry N=C(N)NCCC[C@H](NC(=O)[C@@H](Cc1ccccc1)NC(=O)[C@H](Cc1c[nH]cn1)NC(=O)CCCc1ccccc1)C(=O)N[C@@H](Cc1c[nH]c2ccccc12)C(N)=O [LK-184, Ph(CH2)3CO-His-(D-Phe)-Arg-Trp-NH2] : does pEC50 equal or exceed 9?
-- reply Y

-- ask hey, is pEC50 for this one >= 9? CNC(=O)[C@H](CCCNC(=N)N)NC(=O)[C@@H](Cc1ccc(-c2ccccc2)cc1)NC(=O)[C@H](Cc1c[nH]cn1)NC(=O)CCCc1ccccc1 [LK-513, Ph(CH2)3CO-His-(D-4-Bip)-Arg-NHMe]
-- reply N

-- ask hey, is pEC50 for this one >= 9? CC(C)(C)c1ccc(C[C@@H](NC(=O)[C@H](Cc2c[nH]cn2)NC(=O)CCCc2ccccc2)C(=O)N[C@@H](CCCNC(=N)N)C(N)=O)cc1 [LK-514, Ph(CH2)3CO-His-(D-4-tBuPhe)-Arg-NH2]
-- reply N

# next compound below
-- ask Kindly determine if pEC50 recorded for N=C(N)NCCC[C@H](NC(=O)[C@@H](Cc1cccc2ccccc12)NC(=O)[C@H](Cc1c[nH]cn1)NC(=O)CCCc1ccccc1)C(=O)N[C@@H](Cc1c[nH]c2ccccc12)C(N)=O [LK-467, Ph(CH2)3CO-His-(D-1-Nal)-Arg-Trp-NH2] is above or exactly 9.
-- reply Y
